- target-entity: Hepatocyte growth factor receptor (Homo sapiens, UniProt P08581)
- Sequence (P08581 whole entry): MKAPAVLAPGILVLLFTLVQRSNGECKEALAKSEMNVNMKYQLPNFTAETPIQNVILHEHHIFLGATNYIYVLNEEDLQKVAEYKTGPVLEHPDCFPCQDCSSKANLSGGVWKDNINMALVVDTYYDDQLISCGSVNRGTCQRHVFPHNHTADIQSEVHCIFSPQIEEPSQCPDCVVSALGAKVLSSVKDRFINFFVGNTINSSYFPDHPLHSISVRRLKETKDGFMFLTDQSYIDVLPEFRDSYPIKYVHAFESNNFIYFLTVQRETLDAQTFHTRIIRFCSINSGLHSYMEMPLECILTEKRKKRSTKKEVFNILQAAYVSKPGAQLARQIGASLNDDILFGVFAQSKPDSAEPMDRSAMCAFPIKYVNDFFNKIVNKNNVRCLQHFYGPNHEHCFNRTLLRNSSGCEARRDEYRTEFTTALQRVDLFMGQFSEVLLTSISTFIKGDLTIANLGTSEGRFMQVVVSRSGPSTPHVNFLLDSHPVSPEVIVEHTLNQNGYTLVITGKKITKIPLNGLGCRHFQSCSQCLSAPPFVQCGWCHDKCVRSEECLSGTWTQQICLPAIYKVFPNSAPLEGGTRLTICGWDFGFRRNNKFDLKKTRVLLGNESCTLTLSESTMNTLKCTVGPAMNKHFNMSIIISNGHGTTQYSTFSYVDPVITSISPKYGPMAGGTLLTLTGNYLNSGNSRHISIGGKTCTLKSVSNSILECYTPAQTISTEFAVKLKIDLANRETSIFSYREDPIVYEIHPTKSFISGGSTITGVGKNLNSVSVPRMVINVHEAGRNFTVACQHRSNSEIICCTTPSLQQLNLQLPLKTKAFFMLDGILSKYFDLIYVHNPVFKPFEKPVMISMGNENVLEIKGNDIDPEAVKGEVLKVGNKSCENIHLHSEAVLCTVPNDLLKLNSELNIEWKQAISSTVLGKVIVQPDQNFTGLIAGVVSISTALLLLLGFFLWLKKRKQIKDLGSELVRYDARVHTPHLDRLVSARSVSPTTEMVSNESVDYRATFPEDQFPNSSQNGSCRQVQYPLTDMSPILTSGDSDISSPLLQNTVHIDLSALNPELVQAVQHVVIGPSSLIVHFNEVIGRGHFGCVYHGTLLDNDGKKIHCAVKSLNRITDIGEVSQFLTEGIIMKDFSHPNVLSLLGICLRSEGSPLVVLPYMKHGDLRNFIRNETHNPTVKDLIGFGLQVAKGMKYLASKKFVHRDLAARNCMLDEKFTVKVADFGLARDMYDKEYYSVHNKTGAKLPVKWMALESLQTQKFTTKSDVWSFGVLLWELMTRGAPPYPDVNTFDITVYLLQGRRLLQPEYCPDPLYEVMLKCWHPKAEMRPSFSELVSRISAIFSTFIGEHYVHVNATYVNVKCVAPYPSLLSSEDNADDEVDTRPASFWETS
Classes are defined on IC50 with ranges Low = under 300 nM, Medium = from 300 nM up to 700 nM, High = 700 nM and over

Exercise: read the entry CCC(=O)Nc1cc2c(Oc3ccc(NC(=O)CCCc4ccc(C)cc4)cc3F)ncnc2cc1OC and state which class it falls under. High

Lookup CCC(=O)Nc1cc2c(Oc3ccc(NC(=O)CCCc4ccc(OC)cc4)cc3F)ncnc2cc1OC Low

Can you handle CCC(=O)Nc1cc2c(Oc3ccc(NC(=O)CCCc4ccc(F)cc4)cc3F)ncnc2cc1OC next? Medium

Check CCCC(=O)Nc1cc2c(Oc3ccc(NC(=O)CCCc4ccccc4)cc3F)ncnc2cc1OC too. Medium

Another: C=CC(=O)Nc1cc2c(Oc3ccc(NC(=O)c4sc(-c5ccccc5)nc4C)cc3F)cccc2cc1OC Low

Let us now turn to CCCC(=O)Nc1cc2c(Oc3ccc(NC(=O)CCCc4ccsc4)cc3F)ncnc2cc1OC High

And CCCC(=O)Nc1cc2c(Oc3ccc(NC(=O)CCCc4ccc(C)cc4)cc3F)ncnc2cc1OC ? Medium

What would you report for C=CC(=O)Nc1cc2c(Oc3ccc(NC(=O)NCCc4csc(Br)c4)cc3F)ncnc2cc1OC ? Low

Same question, C=CC(=O)Nc1cc2c(Oc3ccc(NC(=O)CCCc4ccc(OC)cc4)cc3F)ncnc2cc1OC this time Medium

// next record CCCCC(=O)Nc1cc2c(Oc3ccc(NC(=O)CCCc4ccccc4)cc3F)ncnc2cc1OC Medium

Then C=CC(=O)Nc1cc2c(Oc3ccc(NC(=O)NCCC4CCCCC4)cc3F)ncnc2cc1OC ? Low

Next compound up: COc1cc2ncnc(Oc3ccc(NC(=O)CCCc4ccccc4)cc3F)c2cc1NC(=O)CCC(C)C High

Next up: COc1cc2ncnc(Oc3ccc(NC(=O)CCCc4ccc(C)cc4)cc3F)c2cc1NC(=O)CCC(C)C High

Repeat for the following compound: CCCCC(=O)Nc1cc2c(Oc3ccc(NC(=O)CCCc4ccc(F)cc4)cc3F)ncnc2cc1OC Medium

Again, but for CCCC(=O)Nc1cc2c(Oc3ccc(NC(=O)c4c(-c5c(Cl)cccc5Cl)noc4C)cc3F)cccc2cc1OC High

Repeat with C/C=C/C(=O)Nc1cc2c(Oc3ccc(NC(=O)CCCc4ccccc4)cc3F)ncnc2cc1OC Medium

Same question, C/C=C/C(=O)Nc1cc2c(Oc3ccc(NC(=O)c4sc(-c5ccccc5)nc4C)cc3F)cccc2cc1OC this time Low

====

- target-entity: UniProt P08581
# key: entry, value: pIC50
Quick note: pIC50 means taking -log10 of the concentration in moles per liter.

[[record]]
smiles_record = "C=CC(=O)Nc1cc2c(Oc3ccc(NC(=O)NCCc4ccc(OC)c(OC)c4)cc3F)ncnc2cc1OC"
test_result = 6.94

[[record]]
smiles_record = "C=CC(=O)Nc1cc2c(Oc3ccc(NC(=O)CCCc4ccc(C)cc4)cc3F)ncnc2cc1OC"
test_result = 6.40

[[record]]
smiles_record = "C/C=C/C(=O)Nc1cc2c(Oc3ccc(NC(=O)c4c(-c5c(Cl)cccc5Cl)noc4C)cc3F)cccc2cc1OC"
test_result = 5.47


Which value of pIC50 has been reported for CCC(=O)Nc1cc2c(Oc3ccc(NC(=O)NCCc4csc(Br)c4)cc3F)ncnc2cc1OC in the records? 6.61

Same lookup for C/C=C/C(=O)Nc1cc2c(Oc3ccc(NC(=O)n4c(=O)c(-c5ccccc5)c(C)n4C)cc3F)cccc2cc1OC , please. 7.82

C=CC(=O)Nc1cc2c(Oc3ccc(NC(=O)CCCc4ccc(F)cc4)cc3F)ncnc2cc1OC ? 6.45

Proceed to CCCC(=O)Nc1cc2c(Oc3ccc(NC(=O)c4sc(-c5ccccc5)nc4C)cc3F)cccc2cc1OC 7.14

Subsequent entry: CCC(=O)Nc1cc2c(Oc3ccc(NC(=O)CCCc4ccsc4)cc3F)ncnc2cc1OC 6.24
